# Inhibition zone listing for each entry below
test system: Acinetobacter baumannii isolates; assay: Antimicrobial susceptibility test, disc diffusion method (CLSI M100-S24); assay type: cell-based; conditions: isolate AB2; disc diffusion
Property label: Inhibition zone (mm)

# Compound, Property label, Unit of measurement, Observed
data = [
    ("CO/N=C(\\C(=O)N[C@@H]1C(=O)N2C(C(=O)[O-])=C(C[N+]3(C)CCCC3)CS[C@H]12)c1csc(N)n1 [FEP, Cefepime]", "Inhibition zone", "mm", 16),
    ("CC(C)(O/N=C(\\C(=O)N[C@@H]1C(=O)N2C(C(=O)[O-])=C(C[n+]3ccccc3)CS[C@H]12)c1csc(N)n1)C(=O)O [CAZ, Ceftazidime]", "Inhibition zone", "mm", 17),
    ("NCC[C@H](O)C(=O)N[C@@H]1C[C@H](N)[C@@H](O[C@H]2O[C@H](CN)[C@@H](O)[C@H](O)[C@H]2O)[C@H](O)[C@H]1O[C@H]1O[C@H](CO)[C@@H](O)[C@H](N)[C@H]1O [AK, Amikacin]", "Inhibition zone", "mm", 20),
]
